Entry source: PubChem BioAssay AID2060885

tested on: NCI-H23 complex spheroids with HUVEC/MSC, viability; assay: Anticancer human tumor NCI-H23 cell line growth inhibition [RAS]; settings: second compound 0.03 µM; first compound 1 µM; active means viability on the fitted dose curve at most 10% of control; inactive means the rest;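 further: spheroids exposed to compound for 7 days; 100% = DMSO vehicle control viability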
Please answer using one outcome listed in y = active, n = inactive

Challenge: In this assay, the call recorded for O=C(c1ccc(F)c(F)c1Nc1ccc(I)cc1F)N1CC(O)([C@@H]2CCCCN2)C1 + CCn1c(-c2cccnc2C(C)OC)c2c3cc(ccc31)N1CCOC(CC(NC(=O)C(C(C)C)N(C)C(=O)C3(F)CCN(C(=O)C#CC(C)(C)N(C)C)CC3)C(=O)N3CCCC(N3)C(=O)OCC(C)(C)C2)C1 was what?
Response given: y

Challenge: Call for entry O=C(c1ccc(F)c(F)c1Nc1ccc(I)cc1F)N1CC(O)([C@@H]2CCCCN2)C1 + CCn1c(-c2cc(N3CCN(C)CC3)cnc2C(C)OC)c2c3cc(ccc31)-c1csc(n1)CC(NC(=O)C1CC1C)C(=O)N1CCCC(N1)C(=O)OCC(C)(C)C2 :
Response given: y

Challenge: Record request — test call for CCC(CC)c1cc(NC2CCC(N)C2)n2nccc2n1 (stereo not drawn) + CCn1c(-c2cccnc2C(C)OC)c2c3cc(ccc31)N1CCOC(CC(NC(=O)C(C(C)C)N(C)C(=O)C3(F)CCN(C(=O)C#CC(C)(C)N(C)C)CC3)C(=O)N3CCCC(N3)C(=O)OCC(C)(C)C2)C1
Response given: n

----------
system: NCI-H23 complex spheroids with HUVEC/MSC, viability; experiment: Anticancer human tumor NCI-H23 cell line growth inhibition [RAS]; settings: second compound 0.0949 µM; first compound 0.1 µM; hits give low values;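 further: spheroids exposed to compound for 7 days; 100% = DMSO vehicle control viability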
experimental_readout: viability, T/C (%)
Hi! Could you send only the number? It should be in %, unit omitted.

Challenge: Query the reported viability, T/C for NCI-H23 complex spheroids with HUVEC/MSC, viability; item: CC(C)n1nc(-c2ccc3oc(N)nc3c2)c2c(N)ncnc21 + CCn1c(-c2cc(N3CCN(C)CC3)cnc2C(C)OC)c2c3cc(ccc31)-c1csc(n1)CC(NC(=O)C1CC1C)C(=O)N1CCCC(N1)C(=O)OCC(C)(C)C2
Response given: 11.2

Challenge: viability, T/C of CC(Nc1ccc2c(c1)OCCn1cc(N3C(=O)OCC3C(F)F)nc1-2)C(N)=O (centres undefined) + CCn1c(-c2cc(N3CCN(C)CC3)cnc2C(C)OC)c2c3cc(ccc31)-c1csc(n1)CC(NC(=O)C1CC1C)C(=O)N1CCCC(N1)C(=O)OCC(C)(C)C2 on NCI-H23 complex spheroids with HUVEC/MSC, viability?
Response given: 14.9

Challenge: # get_value(readout= viability, T/C, system= NCI-H23 complex spheroids with HUVEC/MSC, viability) for CC(C)NCC(C(=O)N1CCN(c2ncnc3c2C(C)CC3O)CC1)c1ccc(Cl)cc1 (centres undefined) + CCn1c(-c2cc(N3CCN(C)CC3)cnc2C(C)OC)c2c3cc(ccc31)-c1csc(n1)CC(NC(=O)C1CC1C)C(=O)N1CCCC(N1)C(=O)OCC(C)(C)C2
Response given: 18.6

Challenge: Short answer please: viability, T/C, NCI-H23 complex spheroids with HUVEC/MSC, viability, entry O=C(c1ccc(F)c(F)c1Nc1ccc(I)cc1F)N1CC(O)([C@@H]2CCCCN2)C1 + CCn1c(-c2cccnc2C(C)OC)c2c3cc(ccc31)N1CCOC(CC(NC(=O)C(C(C)C)N(C)C(=O)C3(F)CCN(C(=O)C#CC(C)(C)N(C)C)CC3)C(=O)N3CCCC(N3)C(=O)OCC(C)(C)C2)C1
Response given: 22.3

----------
tested on: NCI-H23 complex spheroids with HUVEC/MSC, viability; experiment: Anticancer human tumor NCI-H23 cell line growth inhibition [RAS]; conditions: second compound 0.3 µM; first compound 0.0316 µM; hits give low values;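 further: spheroids exposed to compound for 7 days; 100% = DMSO vehicle control viability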
experimental_readout: viability, T/C (%)
Respond with the bare value in %.

Challenge: Please give the measured viability, T/C for this molecule: CC(C)n1nc(-c2ccc3oc(N)nc3c2)c2c(N)ncnc21 + CCn1c(-c2cc(N3CCN(C)CC3)cnc2C(C)OC)c2c3cc(ccc31)-c1csc(n1)CC(NC(=O)C1CC1C)C(=O)N1CCCC(N1)C(=O)OCC(C)(C)C2
Response given: 13.5

Challenge: Looking for the measured viability, T/C of CC(Nc1ccc2c(c1)OCCn1cc(N3C(=O)OCC3C(F)F)nc1-2)C(N)=O (configuration not stated) + CCn1c(-c2cc(N3CCN(C)CC3)cnc2C(C)OC)c2c3cc(ccc31)-c1csc(n1)CC(NC(=O)C1CC1C)C(=O)N1CCCC(N1)C(=O)OCC(C)(C)C2 , can you help?
Response given: 14

----------
test system: NCI-H23 complex spheroids with HUVEC/MSC, viability; assay: Anticancer human tumor NCI-H23 cell line growth inhibition [RAS]; conditions: second compound 0.3 µM; first compound 0.01 µM; active means viability on the fitted dose curve at most 10% of control; inactive means the rest;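 further: spheroids exposed to compound for 7 days; 100% = DMSO vehicle control viability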
Outcome (select one): t = active, f = inactive

Challenge: Recorded test outcome, item CCN1CCN(Cc2ccc(Nc3ncc(F)c(-c4cc(F)c5nc(C)n(C(C)C)c5c4)n3)nc2)CC1 + CCn1c(-c2cccnc2C(C)OC)c2c3cc(ccc31)N1CCOC(CC(NC(=O)C(C(C)C)N(C)C(=O)C3(F)CCN(C(=O)C#CC(C)(C)N(C)C)CC3)C(=O)N3CCCC(N3)C(=O)OCC(C)(C)C2)C1
Response given: f

Challenge: How did this test come out for CC(C)n1nc(-c2ccc3oc(N)nc3c2)c2c(N)ncnc21 + CCn1c(-c2cc(N3CCN(C)CC3)cnc2C(C)OC)c2c3cc(ccc31)-c1csc(n1)CC(NC(=O)C1CC1C)C(=O)N1CCCC(N1)C(=O)OCC(C)(C)C2 ?
Response given: f

Challenge: Please state the recorded outcome for this compound: CC(C)n1nc(-c2ccc3oc(N)nc3c2)c2c(N)ncnc21 + CCn1c(-c2cccnc2C(C)OC)c2c3cc(ccc31)N1CCOC(CC(NC(=O)C(C(C)C)N(C)C(=O)C3(F)CCN(C(=O)C#CC(C)(C)N(C)C)CC3)C(=O)N3CCCC(N3)C(=O)OCC(C)(C)C2)C1
Response given: f

Challenge: Hello, I am checking results. What call was entered for C=CC(=O)Nc1cc(Nc2nccc(-c3cn(C)c4ccccc34)n2)c(OC)cc1N(C)CCN(C)C + CCn1c(-c2cccnc2C(C)OC)c2c3cc(ccc31)N1CCOC(CC(NC(=O)C(C(C)C)N(C)C(=O)C3(F)CCN(C(=O)C#CC(C)(C)N(C)C)CC3)C(=O)N3CCCC(N3)C(=O)OCC(C)(C)C2)C1 ?
Response given: f

Challenge: # outcome recorded in this test, key = C=CC(=O)N1CCN(c2nc(OCC3CCCN3C)nc3c(F)c(-c4nc(N)cc(C)c4C(F)(F)F)c(Cl)cc23)C(C)C1 (configuration not stated) + CCn1c(-c2cc(N3CCN(C)CC3)cnc2C(C)OC)c2c3cc(ccc31)-c1csc(n1)CC(NC(=O)C1CC1C)C(=O)N1CCCC(N1)C(=O)OCC(C)(C)C2
Response given: f

Challenge: Can you look up the reported call for O=C(c1ccc(F)c(F)c1Nc1ccc(I)cc1F)N1CC(O)([C@@H]2CCCCN2)C1 + CCn1c(-c2cccnc2C(C)OC)c2c3cc(ccc31)N1CCOC(CC(NC(=O)C(C(C)C)N(C)C(=O)C3(F)CCN(C(=O)C#CC(C)(C)N(C)C)CC3)C(=O)N3CCCC(N3)C(=O)OCC(C)(C)C2)C1 for me?
Response given: f

Challenge: Hello, I am checking results. What call was entered for Nc1ccn(C2OC(CO)C(O)C2(F)F)c(=O)n1 (configuration not stated) + CCn1c(-c2cc(N3CCN(C)CC3)cnc2C(C)OC)c2c3cc(ccc31)-c1csc(n1)CC(NC(=O)C1CC1C)C(=O)N1CCCC(N1)C(=O)OCC(C)(C)C2 ?
Response given: t

Challenge: Would you mind telling me which call this test gave Nc1ccn(C2OC(CO)C(O)C2(F)F)c(=O)n1 (configuration not stated) + CCn1c(-c2cccnc2C(C)OC)c2c3cc(ccc31)N1CCOC(CC(NC(=O)C(C(C)C)N(C)C(=O)C3(F)CCN(C(=O)C#CC(C)(C)N(C)C)CC3)C(=O)N3CCCC(N3)C(=O)OCC(C)(C)C2)C1 ?
Response given: t

Challenge: Outcome logged for C=CC(=O)Nc1cc(Nc2nccc(-c3cn(C)c4ccccc34)n2)c(OC)cc1N(C)CCN(C)C + CCn1c(-c2cc(N3CCN(C)CC3)cnc2C(C)OC)c2c3cc(ccc31)-c1csc(n1)CC(NC(=O)C1CC1C)C(=O)N1CCCC(N1)C(=O)OCC(C)(C)C2 in this assay:
Response given: f

Challenge: // return assay outcome for CCN1CCN(Cc2ccc(Nc3ncc(F)c(-c4cc(F)c5nc(C)n(C(C)C)c5c4)n3)nc2)CC1 + CCn1c(-c2cc(N3CCN(C)CC3)cnc2C(C)OC)c2c3cc(ccc31)-c1csc(n1)CC(NC(=O)C1CC1C)C(=O)N1CCCC(N1)C(=O)OCC(C)(C)C2
Response given: f

Challenge: Per the records of this test, what outcome belongs to C=CC(=O)N1CCN(c2nc(OCC3CCCN3C)nc3c(F)c(-c4nc(N)cc(C)c4C(F)(F)F)c(Cl)cc23)C(C)C1 (configuration not stated) + CCn1c(-c2cccnc2C(C)OC)c2c3cc(ccc31)N1CCOC(CC(NC(=O)C(C(C)C)N(C)C(=O)C3(F)CCN(C(=O)C#CC(C)(C)N(C)C)CC3)C(=O)N3CCCC(N3)C(=O)OCC(C)(C)C2)C1 ?
Response given: f

Challenge: Each compound tested received a call. Report the one for O=C(c1ccc(F)c(F)c1Nc1ccc(I)cc1F)N1CC(O)([C@@H]2CCCCN2)C1 + CCn1c(-c2cc(N3CCN(C)CC3)cnc2C(C)OC)c2c3cc(ccc31)-c1csc(n1)CC(NC(=O)C1CC1C)C(=O)N1CCCC(N1)C(=O)OCC(C)(C)C2 .
Response given: t
